In what follows, each item is paired with its IC50 for MAP4K1 (HPK1) (Homo sapiens, UniProt Q92918).

compound: CC(=O)N1CC(Oc2ncc(C(C)(C)O)c3cc(Nc4ccc5c(n4)[C@@H](C)[C@H](C)OC5=O)ncc23)C1
IC50 (nM): 1.91
//
compound: CC[C@](C)(O)c1cnc(OC2CC2)c2cnc(Nc3ccc4c(n3)C(C)(C)[C@@H](C)OC4=O)cc12
IC50 (nM): 2.53
//
compound: CC[C@@](C)(O)c1cnc(O[C@H](C)C[C@@H](C)S(C)(=O)=O)c2cnc(Nc3ccc4c(n3)[C@@H](C)C(C)(C)OC4=O)cc12 (single isomer, unassigned)
IC50 (nM): 0.89
//
compound: CC[C@@H](O)c1cnc(OC2CN(S(C)(=O)=O)C2)c2cnc(Nc3ccc4c(n3)[C@@H](C)C(C)(C)OC4=O)cc12 (single isomer, unassigned)
IC50 (nM): 0.67
//
compound: CCOc1ncc([C@@](C)(O)C2CC2)c2cc(Nc3ccc4c(n3)[C@@H](C)C(C)(C)OC4=O)ncc12 (single isomer, unassigned)
IC50 (nM): 15.5
//
compound: CC[C@@](C)(O)c1cnc(NC2CC2)c2cnc(Nc3ccc4c(n3)[C@@H](C)C(C)(C)OC4=O)cc12 (single isomer, unassigned)
IC50 (nM): 3.03
